molecular target: Dual specificity tyrosine-phosphorylation-regulated kinase 1A (Homo sapiens); test: Inhibition of human recombinant GST-fusion DYRK1A expressed in Escherichia coli
TEST_READOUT: IC50

Worked examples follow.
CC(=O)Nc1nc2nn(-c3ccccc3)c(NC(C)=O)c2cc1C#N    > 10 µM
CC(=O)Nc1nc2[nH]nc(NC(C)=O)c2cc1C#N    > 10 µM
Cn1nc(N)c2cc(C#N)c(N)nc21    > 10 µM
N#Cc1c(N2CCOCC2)nc2[nH]nc(N)c2c1-c1ccccc1    > 10 µM
COc1nc(NN)c(C#N)c(-c2ccccc2)c1C#N    > 10 µM
N#Cc1cc2c(N)n[nH]c2nc1N    > 10 µM

Any idea what its IC50 is? The molecule is `CC(=O)Nc1nn(C)c2nc(N)c(C#N)cc12`
> 10 µM

Also `CC(=O)Nc1nn(C)c2nc(N)c(C#N)c(-c3ccccc3)c12` , if possible.
> 10 µM

Also `COc1nc(NNC(C)=O)c(C#N)c(-c2ccccc2)c1C#N` , if possible.
> 10 µM

----------
target: Dual specificity tyrosine-phosphorylation-regulated kinase 1A (Homo sapiens, UniProt Q13627); assay: Inhibition of human recombinant GST-fusion DYRK1A expressed in Escherichia coli
pIC50: −log10 of the molar value.
This listing pairs molecules with measured pIC50.

Worked examples follow.
CC(=O)n1nc(N)c2c(-c3ccccc3)c(C#N)c(N)nc21    < 5.00
N#Cc1c(Cl)nc2[nH]nc(N)c2c1-c1ccccc1    < 5.00
N#Cc1c(N)nc2[nH]nc(N)c2c1-c1ccccc1    4.96
N#Cc1cc2c(N)n(-c3ccccc3)nc2nc1N    < 5.00

Shift focus to the following entry.
Any idea what its pIC50 is? The molecule is `Cn1nc(N)c2c(-c3ccccc3)c(C#N)c(N)nc21`
< 5.00

Source of measurements: ChEMBL document CHEMBL1153477
